test system: A549; assay: Anticancer activity against human A549 cells assessed as cell viability after 72 hrs by MTT reduction assay; type: functional, cell-based; conditions: A549, 72 h
metric: IC50 (µM)
Reply with just the number (in µM).

compound	result_number
O=C1NC(=O)/C(=C/C2=Cc3cc(Br)ccc3OC2)N1	19.3

(Q) // returns reported IC50 for input `O=C1NC(=S)S/C1=C\C1=Cc2ccccc2OC1`
(A) 73.1

(Q) Look up IC50 for this compound: `O=C1NC(=O)/C(=C/C2=Cc3ccccc3OC2)N1`
(A) 29.7

(Q) Fill in the blank: the reported IC50 of CC1Oc2ccc(Br)cc2C=C1/C=C1\SC(=S)NC1=O (racemic) is ____.
(A) 47.5

(Q) Form field: reported IC50 of CC1Oc2ccc(Br)cc2C=C1/C=C1\SC(=O)NC1=O (racemic)
(A) 65.5

(Q) Find the recorded IC50 belonging to CC1Oc2ccc(Br)cc2C=C1/C=C1/C(=O)NC(=N)N1C (racemic) and report it.
(A) 121

----------
tested on: A549; assay: Anticancer activity against human A549 cells assessed as cell viability after 72 hrs by MTT reduction assay; format: functional, cell-based; conditions: A549, 72 h
Items are presented alongside their recorded pIC50.
Lab note: report pIC50 as minus log10 of the concentration in molar units, number only.

Below: 4 compounds and their reported pIC50.
compound	system_name	result_number
O=C1NC(=O)/C(=C/C2=Cc3cc(Br)ccc3OC2)S1	A549	4.10
CC1Oc2ccc(Br)cc2C=C1/C=C1\NC(=O)NC1=O (racemic)	A549	4.76
O=C1NC(=O)/C(=C/C2=Cc3ccccc3OC2)S1	A549	3.72
CN1C(=N)NC(=O)/C1=C/C1=Cc2ccccc2OC1	A549	4.05

(Q) Need pIC50 of `O=C1NC(=S)S/C1=C\C1=Cc2cc(Br)ccc2OC1` , thanks.
(A) 4.29

----------
test system: A549; test: Anticancer activity against human A549 cells assessed as cell viability after 72 hrs by MTT reduction assay; assay type: functional, cell-based; details: A549, 72 h
Each item that follows carries a reported IC50.

compound	IC50
COc1cccc2c1OCC(/C=C1\SC(=S)N(CC(=O)O)C1=O)=C2	> 200 µM
CC1Oc2ccc(Br)cc2C=C1/C=C1\SC(=O)N(C)C1=O (racemic)	> 50 µM
CCN1C(=O)S/C(=C\C2=Cc3cccc(OC)c3OC2)C1=O	> 200 µM
CN1C(=O)S/C(=C\C2=Cc3ccccc3OC2)C1=O	> 100 µM

// moving on: another record for IC50
(Q) I have this compound here, `O=C(O)CN1C(=O)/C(=C/C2=Cc3ccccc3OC2)SC1=S` , and I need its recorded IC50.
(A) > 100 µM

----------
tested on: A549; assay: Anticancer activity against human A549 cells assessed as cell viability after 72 hrs by MTT reduction assay; assay type: functional, cell-based; conditions: A549, 72 h
pIC50: −log10 of the molar value.
# pIC50 annotations

molecule	pIC50
CCN1C(=O)S/C(=C\C2=Cc3ccccc3OC2)C1=O	< 3.70

(Q) Param item = CCN1C(=O)S/C(=C\C2=Cc3cc(Br)ccc3OC2C)C1=O (racemic) ; retrieve measured pIC50.
(A) < 4.00

(Q) pIC50 for `O=C(O)CN1C(=O)/C(=C/C2=Cc3cc(Br)ccc3OC2)SC1=S` ?
(A) < 4.60

(Q) pIC50 for CC1Oc2ccc(Br)cc2C=C1/C=C1\SC(=S)N(CC(=O)O)C1=O (racemic) ?
(A) < 4.30
